Overview of reported MIC across a group of molecules:
# Tested on: Escherichia coli
# PROCEDURE_TEXT: Antimicrobial activity against Escherichia coli after 16 to 18 hrs by serial dilution method
# Assay type: functional
METRIC_NAME: MIC (µg/mL)

1. COc1ccc(-c2nnc(-c3ccc(F)cc3)o2)c(F)c1 :: 12.5
2. COc1ccc(-c2nnc(-c3cccc(C)c3C)o2)c(F)c1 :: 6
3. COc1ccc(-c2nnc(-c3cccc(Br)c3C)o2)c(F)c1 :: 3
4. COc1ccc(-c2nnc(-c3ccc(Cl)nc3)o2)c(F)c1 :: 6
5. COc1ccc(-c2nnc(-c3ccc(F)c(F)c3F)o2)c(F)c1 :: 3
6. COc1ccc(-c2nnc(-c3cc(F)cc(F)c3)o2)c(F)c1 :: 6
7. COc1ccc(-c2nnc(-c3cccc(C#N)c3)o2)c(F)c1 :: 6
8. COc1ccc(-c2nnc(-c3cc(C)on3)o2)c(F)c1 :: 6
9. COc1ccc(-c2nnc(-c3ccccc3C(F)(F)F)o2)c(F)c1 :: 6
10. COc1ccc(-c2nnc(-c3ccc([N+](=O)[O-])c(F)c3)o2)c(F)c1 :: 6
11. COc1ccc(-c2nnc(-c3cnc4ccccc4c3)o2)c(F)c1 :: 6
12. COc1ccc(-c2nnc(-c3c([N+](=O)[O-])ccc(F)c3F)o2)c(F)c1 :: 12.5
13. NC(=O)N/N=C/c1ccc([N+](=O)[O-])o1 :: 6
14. COc1ccc(-c2nnc(-c3cc(Cl)ccc3Br)o2)c(F)c1 :: 6
